test system: VSV pseudotyped with the SARS-CoV-2 Wuhan-Hu-1 S; assay: organism not typed; type: cell-based; conditions: Vero C1008, read-out: EC50 (concentration reducing infection by VSV pseudotyped with the SARS-CoV-2 Wuhan-Hu-1 S by 50%)
pEC50: −log10 of the molar value.
A collection of molecules and their measured pEC50
Measurement kind: pEC50

[
  {
    "Molecule": "CC(C)c1c(CN(C)C(C)Cc2ccccc2)n(C)n(-c2ccccc2)c1=O (stereo not shown)",
    "Measurement kind": "pEC50",
    "Recorded value": 5.12
  },
  {
    "Molecule": "C=C1CC[C@H](O)C/C1=C/C=C1\\CCC[C@]2(C)[C@@H]([C@H](C)CCCC(C)(C)O)CC[C@@H]12",
    "Measurement kind": "pEC50",
    "Recorded value": 5.21
  },
  {
    "Molecule": "CCCCCCCCc1ccc(CCC(N)(CO)CO)cc1",
    "Measurement kind": "pEC50",
    "Recorded value": 5.15
  },
  {
    "Molecule": "C=C1CC[C@H](O)C/C1=C/C=C1\\CCC[C@]2(C)[C@@H]([C@H](C)CCCC(C)C)CC[C@@H]12",
    "Measurement kind": "pEC50",
    "Recorded value": 4.83
  }
]

###

experiment: in vitro; conditions: African green monkey
A collection of compounds and their measured CC50

[
  {
    "Compound": "CC(C)c1c(CN(C)C(C)Cc2ccccc2)n(C)n(-c2ccccc2)c1=O (stereo not shown) [famprofazone]",
    "CC50 [µM]": 79
  },
  {
    "Compound": "C=C1CC[C@H](O)C/C1=C/C=C1\\CCC[C@]2(C)[C@@H]([C@H](C)CCCC(C)C)CC[C@@H]12 [cholecalciferol]",
    "CC50 [µM]": 83.7
  },
  {
    "Compound": "CCCCCCCCc1ccc(CCC(N)(CO)CO)cc1 [fingolimod]",
    "CC50 [µM]": 20.4
  },
  {
    "Compound": "C=C1CC[C@H](O)C/C1=C/C=C1\\CCC[C@]2(C)[C@@H]([C@H](C)CCCC(C)(C)O)CC[C@@H]12 [calcifediol]",
    "CC50 [µM]": 16.8
  }
]
